# maps each entry to its IC50
# assayed-target: ligand binding domain of human ROR gamma (Homo sapiens, UniProt P51449)
# Construct: NM_001001523; expressed in transfected cells; host or cells: HEK293T
# Sequence (P51449 268-518): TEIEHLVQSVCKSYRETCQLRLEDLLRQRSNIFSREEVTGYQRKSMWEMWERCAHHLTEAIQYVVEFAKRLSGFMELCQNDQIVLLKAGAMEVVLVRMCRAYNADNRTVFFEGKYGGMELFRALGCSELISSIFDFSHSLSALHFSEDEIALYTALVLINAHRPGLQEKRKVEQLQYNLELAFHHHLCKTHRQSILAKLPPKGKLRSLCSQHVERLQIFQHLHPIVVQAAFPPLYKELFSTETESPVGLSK
# procedure-details: ROR gamma reporter gene assay (GAL4-RORγ LBD luciferase, Dual-Glo)
# Format: cell-based
# condition-context: HEK293T cells transfected with pM-ROR gamma, 8 concentrations 3.5 nM to 10.5 μM, 24 h incubation; read-out: result (pIC50, inhibition of RORγ transcriptional activity) (converted)
# Description: Luciferase reporter gene assay was used to assess inhibition of RORγ transcriptional activity. ROR gamma expression vector was prepared by inserting the ligand binding domain of human ROR gamma (amino acid 247-497 of Genbank Accession NO. NM_001001523) adjacent to the yeast GAL4 transcription factor DNA binding domain in the expression vector pM (Clontech). […] Data was plotted and pIC50 values were calculated using the XLfit program (ID Business Solutions Ltd.).

For orientation, consider the following solved cases.
CC(C)(C)CC1CC(N(CC(=O)c2c(Cl)cc(F)cc2Cl)C(=O)c2cnn([C@H]3CC[C@](C)(C(=O)O)CC3)c2C(F)(F)F)C1 (some centres unmarked) [Example 203] = 912000 pM
CCC(C)(C)CN(CC(=O)c1c(Cl)cc(F)cc1Cl)C(=O)c1cnn([C@H]2CC[C@](C)(C(=O)O)CC2)c1C(F)(F)F [Example 302] = 14800 pM
Cc1cncc(Cl)c1C(=O)CN(C(=O)c1cnn([C@H]2CC[C@](C)(C(=O)O)CC2)c1C(F)(F)F)[C@H]1C[C@@H]2[C@H](C1)C2(C)C [Example 387] = 69200 pM
Nc1ccccc1C(=O)CN(Cc1cc(F)cc(F)c1)C(=O)c1cnn([C@H]2CC[C@H](C(=O)O)CC2)c1C(F)(F)F [Example 142] = 6.61e+06 pM
CC1(C)[C@@H]2C[C@H](N(CC(O)c3c(Cl)cccc3OC(F)F)C(=O)c3cnn([C@H]4CC[C@](C)(C(=O)O)CC4)c3C(F)(F)F)C[C@@H]21 (some centres unmarked) [Example 399] = 87100 pM

Answer with reported IC50 of CCC(C)(C)CN(CC(=O)c1c(Cl)cncc1Cl)C(=O)c1cnn(C23CCC(C(=O)O)(CC2)CC3)c1C(F)(F)F [Example 288] 11700 pM
